System: 648629-189-R-J1-PDC spheroids with HUVEC/MSC, viability
assay.info: Anticancer human tumor 648629-189-R-J1-PDC patient-derived bladder carcinoma cell line growth inhibition [PI3K]
condition.notes: curve of first compound; second compound 10 µM
pIC50: −log10 of the molar value.
Recorded measurements of pIC50, one per entry
quantity: pIC50

CC1(C)CCC(Nc2ncc(C(F)(F)F)c(-c3c[nH]c4c(P(C)(C)=O)c(C#N)ccc34)n2)CN1 (centres undefined) + CC(Nc1ncnc2nc[nH]c12)c1cc2cccc(Cl)c2c(=O)n1-c1ccccc1    > 7.50
C#Cc1c(F)ccc2cc(O)cc(-c3ncc4c(N5CC6CCC(C5)N6)nc(OCC56CCCN5CC(F)C6)nc4c3F)c12 (centres undefined) + CC(Nc1ncnc2nc[nH]c12)c1cc2cccc(Cl)c2c(=O)n1-c1ccccc1    < 5.00
CC1(C)CCC(Nc2ncc(C(F)(F)F)c(-c3c[nH]c4c(P(C)(C)=O)c(C#N)ccc34)n2)CN1 (centres undefined) + Cc1nc(NC(=O)N2CCCC2C(N)=O)sc1-c1ccnc(C(C)(C)C(F)(F)F)c1    > 7.50
C[C@@H](NC(=O)c1ncnc(N)c1Cl)c1ncc(C(=O)Nc2cc(C(F)(F)F)c(Cl)cn2)s1 + Cc1nc(NC(=O)N2CCCC2C(N)=O)sc1-c1ccnc(C(C)(C)C(F)(F)F)c1    > 7.50

====

Tested on: 648629-189-R-J1-PDC spheroids with HUVEC/MSC, viability
assay.info: Anticancer human tumor 648629-189-R-J1-PDC cell line growth inhibition [PI3K];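 further: spheroids exposed to agents for seven days before reading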;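 on viability, T/C: percent of vehicle control luminescence where 100% = DMSO treated spheroids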
condition.notes: second compound 1 µM; first compound 0.316 µM; stronger effect = lower value
Note to self: use t only for viability, T/C readings below 70%; a reading exactly at 70% still gets f.

CCCS(=O)(=O)Nc1ccc(F)c(C(=O)c2c[nH]c3ncc(-c4ccc(Cl)cc4)cc23)c1F + CC(Nc1ccc2c(c1)OCCn1cc(N3C(=O)OCC3C(F)F)nc1-2)C(N)=O    t
CC(Cn1ccc(-c2ccc(C#N)c(Cl)c2)n1)NC(=O)c1cc(C(C)O)[nH]n1 (stereo unspecified) + COc1c(OCCCN2CCOCC2)ccc2c3n(c(=NC(=O)c4cnc(N)nc4)nc12)CCN3    t
CC(C)NCC(C(=O)N1CCN(c2ncnc3c2C(C)CC3O)CC1)c1ccc(Cl)cc1 (stereo unspecified) + CC(Nc1ncnc2nc[nH]c12)c1cc2cccc(Cl)c2c(=O)n1-c1ccccc1    f
CC(C)NCC(C(=O)N1CCN(c2ncnc3c2C(C)CC3O)CC1)c1ccc(Cl)cc1 (stereo unspecified) + COc1c(OCCCN2CCOCC2)ccc2c3n(c(=NC(=O)c4cnc(N)nc4)nc12)CCN3    t
CCCS(=O)(=O)Nc1ccc(F)c(C(=O)c2c[nH]c3ncc(-c4ccc(Cl)cc4)cc23)c1F + CC(Nc1ncnc2nc[nH]c12)c1cc2cccc(Cl)c2c(=O)n1-c1ccccc1    f

====

System: 648629-189-R-J1-PDC spheroids with HUVEC/MSC, viability
assay.info: Anticancer human tumor 648629-189-R-J1-PDC cell line growth inhibition [PI3K];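 further: spheroids exposed to agents for seven days before reading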;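 on viability, T/C: percent of vehicle control luminescence where 100% = DMSO treated spheroids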
condition.notes: second compound 3.16 µM; first compound 0.1 µM; stronger effect = lower value
quantity: viability, T/C (%)

CC(C)n1nc(-c2ccc3oc(N)nc3c2)c2c(N)ncnc21 + Cc1nc(NC(=O)N2CCCC2C(N)=O)sc1-c1ccnc(C(C)(C)C(F)(F)F)c1    19.1
Cn1ncc(Cl)c1-c1cc(C(=O)NC(CN)Cc2cccc(F)c2)sc1Cl (stereo unspecified) + Cc1nc(NC(=O)N2CCCC2C(N)=O)sc1-c1ccnc(C(C)(C)C(F)(F)F)c1    50.3
Cn1ncnc1[C@H]1c2n[nH]c(=O)c3cc(F)cc(c23)N[C@@H]1c1ccc(F)cc1 + CC(Nc1ncnc2nc[nH]c12)c1cc2cccc(Cl)c2c(=O)n1-c1ccccc1    58.9
CC(=O)c1c(C)c2cnc(Nc3ccc(N4CCNCC4)cn3)nc2n(C2CCCC2)c1=O + Cc1nc(NC(=O)N2CCCC2C(N)=O)sc1-c1ccnc(C(C)(C)C(F)(F)F)c1    54.6
Cn1nccc1Nc1nccc(-c2ccn(C(CO)c3ccc(Cl)c(F)c3)c(=O)c2)n1 (stereo unspecified) + CC(Nc1ncnc2nc[nH]c12)c1cc2cccc(Cl)c2c(=O)n1-c1ccccc1    103
C#Cc1c(F)ccc2cc(O)cc(-c3ncc4c(N5CC6CCC(C5)N6)nc(OCC56CCCN5CC(F)C6)nc4c3F)c12 (stereo unspecified) + Cc1nc(NC(=O)N2CCCC2C(N)=O)sc1-c1ccnc(C(C)(C)C(F)(F)F)c1    56.1
C[C@@H](NC(=O)c1ncnc(N)c1Cl)c1ncc(C(=O)Nc2cc(C(F)(F)F)c(Cl)cn2)s1 + Cc1nc(NC(=O)N2CCCC2C(N)=O)sc1-c1ccnc(C(C)(C)C(F)(F)F)c1    56.6
CCN1CCN(Cc2ccc(Nc3ncc(F)c(-c4cc(F)c5nc(C)n(C(C)C)c5c4)n3)nc2)CC1 + CC(Nc1ncnc2nc[nH]c12)c1cc2cccc(Cl)c2c(=O)n1-c1ccccc1    88.2
CC1(C)CCC(Nc2ncc(C(F)(F)F)c(-c3c[nH]c4c(P(C)(C)=O)c(C#N)ccc34)n2)CN1 (stereo unspecified) + CC(Nc1ncnc2nc[nH]c12)c1cc2cccc(Cl)c2c(=O)n1-c1ccccc1    29.2
CC(C)n1nc(-c2ccc3oc(N)nc3c2)c2c(N)ncnc21 + CC(Nc1ncnc2nc[nH]c12)c1cc2cccc(Cl)c2c(=O)n1-c1ccccc1    33.8
CC1(C)CCC(Nc2ncc(C(F)(F)F)c(-c3c[nH]c4c(P(C)(C)=O)c(C#N)ccc34)n2)CN1 (stereo unspecified) + Cc1nc(NC(=O)N2CCCC2C(N)=O)sc1-c1ccnc(C(C)(C)C(F)(F)F)c1    23.1

Values from PubChem BioAssay AID1963974
